Attribution: ChEMBL document CHEMBL4699625

IC50 by entry:
- experiment: Inhibition of V-ATpase in Saccharomyces cerevisiae […] vacuolar membranes after 10 mins by spectrophotometric based coupled enzyme assay
- Assay type: cell membranes, Saccharomyces cerevisiae W303, Membrane
quantity.kind: IC50 (nM)

# molecule, result.value
rows = [
    ("CO/C1=C\\C(C)=C\\[C@@H](C)[C@@H](O)[C@@H](C)C/C(C)=C/C=C/[C@H](OC)[C@@H]([C@@H](C)[C@@H](O)[C@H](C)[C@@]2(O)C[C@@H](O)[C@H](C)[C@@H](C(C)C)O2)OC1=O [BAFILOMYCIN A1]", 4),
    ("C/C=C/[C@H]1O[C@@](O)([C@@H](C)[C@H](O)[C@H](C)[C@H]2OC(=O)/C(OC)=C/C(C)=C/[C@@H](C)[C@@H](O)[C@@H](CC)[C@@H](O)[C@H](C)C/C(C)=C/C=C/[C@@H]2OC)C[C@@H](O[C@H]2C[C@@H](O)[C@H](OC(N)=O)[C@@H](C)O2)[C@@H]1C [CONCANAMYCIN A]", 3),
    ("C[C@@H]1C/C=C\\C(=O)O[C@H](/C=C/C#C/C=C/C(C)(C)[C@@H](O)c2cccc(O)c2Br)[C@@H](C)/C=C/[C@H](C)C[C@H](OC(N)=O)C1", 9.91),
]
